# credit: the OPERA property sets (Mansouri et al. 2018)

parameter.measured: logP

In [3]: df
Out[3]:
                          molecule  result_value
 0                        CC(C)C#N          0.46
 1                         C=CCC#N           0.4
 2  CCC(C)C#N (stereo unspecified)          1.05
 3                     CCCCCCCCC#N          3.12
 4                       C=C(C)C#N          0.68
 5                        N#CCCCCl          0.56
 6                      CCCCCCCC#N          2.75
 7                          CCCC#N          0.53
 8                        CCCCCC#N          1.66
 9                         N#CCCCl          0.18
10                      CC(C)CCC#N          1.54
